Where these numbers come from: patent US4968539A

test: Ketoprofen concentration in the blood after application to rabbit abdomen; assay type: in vivo, white rabbits; settings: rabbit, blood, topical or ocular, 38° C.; 24 hr; read-out: Concentration of drug in blood
READOUT TYPE: concentration at 24 h

INSERT INTO measurements (molecule, recorded_value) VALUES
  ('CC(C(=O)O)c1cccc(C(=O)c2ccccc2)c1 (stereo not shown)', '410 ng/mL');

---

test: Ketoprofen concentration in the blood after application to rabbit abdomen; format: in vivo, white rabbits; details: rabbit, blood, topical or ocular, 32° C.; 48 hr; read-out: Concentration of drug in blood
READOUT TYPE: concentration at 48 h (ng/mL)

INSERT INTO results (compound, readout_type, unit_abbrev, recorded_value) VALUES
  ('CC(C(=O)O)c1cccc(C(=O)c2ccccc2)c1 (stereo not shown) [ketoprofen]', 'concentration at 48 h', 'ng/mL', 17);
